Reference source: patent US9346769B2

# TARGET_OR_TEST_SYSTEM: human FASN (Homo sapiens, UniProt P49327)
# Construct: was purified from SKBR3 cells using procedures modified from those in Jayakumar et al; endogenous in cells; host or cells: SKBR3 human breast cancer cells (ATCC); Endogenous enzyme purified by ammonium sulfate precipitation and a mono Q column
# Sequence (P49327 whole entry): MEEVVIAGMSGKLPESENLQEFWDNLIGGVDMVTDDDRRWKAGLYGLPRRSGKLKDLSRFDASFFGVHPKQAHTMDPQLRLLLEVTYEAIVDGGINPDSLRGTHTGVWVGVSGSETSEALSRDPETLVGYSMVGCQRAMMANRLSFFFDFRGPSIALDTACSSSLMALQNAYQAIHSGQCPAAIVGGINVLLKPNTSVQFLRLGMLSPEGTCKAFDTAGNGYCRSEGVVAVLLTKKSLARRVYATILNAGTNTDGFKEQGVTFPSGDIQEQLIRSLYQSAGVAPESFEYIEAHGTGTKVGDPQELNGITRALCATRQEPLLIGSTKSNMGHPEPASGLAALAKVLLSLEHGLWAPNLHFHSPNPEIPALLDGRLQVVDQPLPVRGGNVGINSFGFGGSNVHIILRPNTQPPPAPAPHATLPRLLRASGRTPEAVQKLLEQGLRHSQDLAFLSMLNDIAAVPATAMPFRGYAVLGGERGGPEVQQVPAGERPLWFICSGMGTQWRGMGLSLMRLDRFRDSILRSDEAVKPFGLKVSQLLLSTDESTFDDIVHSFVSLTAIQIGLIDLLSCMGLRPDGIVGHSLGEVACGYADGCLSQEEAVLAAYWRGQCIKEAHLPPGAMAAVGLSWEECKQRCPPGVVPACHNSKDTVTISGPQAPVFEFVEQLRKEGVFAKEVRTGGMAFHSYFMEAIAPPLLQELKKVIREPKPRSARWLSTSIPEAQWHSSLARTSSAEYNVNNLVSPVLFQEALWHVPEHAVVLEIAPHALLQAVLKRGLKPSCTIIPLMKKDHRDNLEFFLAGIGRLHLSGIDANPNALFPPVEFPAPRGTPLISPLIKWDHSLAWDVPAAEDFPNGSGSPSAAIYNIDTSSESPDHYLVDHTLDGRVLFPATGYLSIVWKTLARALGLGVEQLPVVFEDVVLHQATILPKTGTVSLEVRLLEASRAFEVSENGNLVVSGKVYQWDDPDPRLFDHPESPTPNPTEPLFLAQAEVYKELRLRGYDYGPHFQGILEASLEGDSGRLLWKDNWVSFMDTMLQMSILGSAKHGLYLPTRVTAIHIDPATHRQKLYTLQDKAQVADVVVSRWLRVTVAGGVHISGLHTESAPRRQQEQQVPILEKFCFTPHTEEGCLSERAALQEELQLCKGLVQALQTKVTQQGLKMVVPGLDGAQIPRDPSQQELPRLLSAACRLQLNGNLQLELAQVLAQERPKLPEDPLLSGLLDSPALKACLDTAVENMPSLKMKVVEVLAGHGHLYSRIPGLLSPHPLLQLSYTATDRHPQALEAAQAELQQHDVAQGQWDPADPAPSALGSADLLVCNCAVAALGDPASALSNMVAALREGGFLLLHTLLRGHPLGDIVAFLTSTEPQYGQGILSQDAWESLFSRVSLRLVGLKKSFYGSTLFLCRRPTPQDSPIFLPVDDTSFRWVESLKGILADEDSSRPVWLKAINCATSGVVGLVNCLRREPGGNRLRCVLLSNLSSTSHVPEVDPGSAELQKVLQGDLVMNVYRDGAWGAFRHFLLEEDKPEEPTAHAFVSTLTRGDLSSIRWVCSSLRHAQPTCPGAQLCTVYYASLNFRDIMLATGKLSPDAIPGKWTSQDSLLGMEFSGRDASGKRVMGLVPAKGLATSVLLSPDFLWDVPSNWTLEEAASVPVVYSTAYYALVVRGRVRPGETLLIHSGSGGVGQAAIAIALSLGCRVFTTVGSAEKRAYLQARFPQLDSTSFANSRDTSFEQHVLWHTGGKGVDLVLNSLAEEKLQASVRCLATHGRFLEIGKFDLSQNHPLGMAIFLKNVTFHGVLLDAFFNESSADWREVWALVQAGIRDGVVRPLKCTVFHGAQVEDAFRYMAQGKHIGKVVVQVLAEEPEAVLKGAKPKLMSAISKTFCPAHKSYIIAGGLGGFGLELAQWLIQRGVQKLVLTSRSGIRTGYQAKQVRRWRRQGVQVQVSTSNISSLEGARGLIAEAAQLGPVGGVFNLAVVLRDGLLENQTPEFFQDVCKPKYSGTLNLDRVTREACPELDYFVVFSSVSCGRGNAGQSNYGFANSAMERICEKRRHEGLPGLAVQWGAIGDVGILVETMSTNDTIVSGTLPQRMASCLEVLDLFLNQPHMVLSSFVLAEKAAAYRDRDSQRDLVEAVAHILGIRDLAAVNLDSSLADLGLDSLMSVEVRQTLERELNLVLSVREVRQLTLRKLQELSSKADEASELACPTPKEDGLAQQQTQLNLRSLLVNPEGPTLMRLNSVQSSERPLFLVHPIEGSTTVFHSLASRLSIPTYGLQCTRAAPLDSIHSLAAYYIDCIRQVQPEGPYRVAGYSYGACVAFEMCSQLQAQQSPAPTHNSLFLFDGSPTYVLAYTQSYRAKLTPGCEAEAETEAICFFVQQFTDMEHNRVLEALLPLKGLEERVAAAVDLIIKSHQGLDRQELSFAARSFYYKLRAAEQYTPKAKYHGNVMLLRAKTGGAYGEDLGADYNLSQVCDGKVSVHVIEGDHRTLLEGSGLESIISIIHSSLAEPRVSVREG
# METHOD_NOTES: FASN NADPH Consumption Assay
# Type: biochemical
# TEST_SETTINGS: human FASN purified from SKBR3 cells; starred symbols
pIC50: −log10 of the molar value.

{"columns": ["COMPOUND", "TARGET_OR_TEST_SYSTEM", "pIC50"],
 "data": [
  ["CCN(C(=O)n1nnn(-c2c(Cl)cccc2Cl)c1=O)C1CCCN(C(=O)OC(C)(C)C)C1 (centres unmarked)", "human FASN (Homo sapiens, UniProt P49327)", "5.00 to 6.00"],
  ["O=C(N1CC[C@](O)(c2ccccc2)[C@@H]2CCCC[C@H]21)n1nnn(-c2c(F)cccc2F)c1=O", "human FASN (Homo sapiens, UniProt P49327)", "5.00 to 6.00"],
  ["CCN(C(=O)n1nnn(-c2c(F)cccc2F)c1=O)c1ccc(C)cc1", "human FASN (Homo sapiens, UniProt P49327)", "6.60 to 7.22"],
  ["CCOC(=O)N1CCCC(N(CC)C(=O)n2nnn(-c3c(Cl)cccc3Cl)c2=O)C1 (centres unmarked)", "human FASN (Homo sapiens, UniProt P49327)", "5.00 to 6.00"],
  ["CN(C(=O)n1nnn(-c2c(F)cccc2F)c1=O)c1ccccc1Cl", "human FASN (Homo sapiens, UniProt P49327)", "> 7.22"],
  ["CC(=O)NC1CCCN(C(=O)n2nnn(-c3c(Cl)cccc3Cl)c2=O)C1 (centres unmarked)", "human FASN (Homo sapiens, UniProt P49327)", "< 5.00"],
  ["CCN(C(=O)n1nnn(-c2c(F)cccc2F)c1=O)c1ccccc1[N+](=O)[O-]", "human FASN (Homo sapiens, UniProt P49327)", "> 7.22"],
  ["O=C(N1CCCc2ccccc21)n1nnn(-c2c(F)cccc2F)c1=O", "human FASN (Homo sapiens, UniProt P49327)", "6.60 to 7.22"],
  ["CCN(C(=O)n1nnn(-c2cccc(Cl)c2)c1=O)C1CCCCC1", "human FASN (Homo sapiens, UniProt P49327)", "< 5.00"],
  ["Cc1cccc2c1N(C(=O)n1nnn(-c3c(F)cccc3F)c1=O)CCC2", "human FASN (Homo sapiens, UniProt P49327)", "6.60 to 7.22"],
  ["O=C(N1CCCC2CCCCC21)n1nnn(-c2c(F)cccc2Br)c1=O (centres unmarked)", "human FASN (Homo sapiens, UniProt P49327)", "6.60 to 7.22"],
  ["COc1ccc(C(=O)OCc2ccccc2)cc1N(CCCCc1ccccc1)C(=O)n1nnn(-c2ccccc2OC)c1=O", "human FASN (Homo sapiens, UniProt P49327)", "5.00 to 6.00"],
  ["CC(C)(C)OC(=O)NCCN(C(=O)n1nnn(-c2c(Cl)cccc2Cl)c1=O)C1CCCCC1", "human FASN (Homo sapiens, UniProt P49327)", "< 5.00"],
  ["CCN(C(=O)n1nnn(-c2ccccc2C)c1=O)C1CCCCC1", "human FASN (Homo sapiens, UniProt P49327)", "5.00 to 6.00"],
  ["CC(C)N(C(=O)n1nnn(-c2c(F)cccc2F)c1=O)c1cccc(C(=O)OCc2ccccc2)c1", "human FASN (Homo sapiens, UniProt P49327)", "> 7.22"],
  ["CC(C)(C)OC(=O)NCCCN(C(=O)n1nnn(-c2c(Cl)cccc2Cl)c1=O)C1CCCCC1", "human FASN (Homo sapiens, UniProt P49327)", "5.00 to 6.00"],
  ["CCN(C(=O)n1nnn(-c2ccccc2F)c1=O)C1CCCCC1", "human FASN (Homo sapiens, UniProt P49327)", "5.00 to 6.00"],
  ["CN(C)N(C(=O)n1nnn(-c2ccccc2Cl)c1=O)C1=CCCCC1", "human FASN (Homo sapiens, UniProt P49327)", "5.00 to 6.00"],
  ["O=C(N(c1ccccc1)c1ccccc1)n1nnn(-c2c(F)cccc2F)c1=O", "human FASN (Homo sapiens, UniProt P49327)", "6.60 to 7.22"],
  ["CC(C)N(C(=O)n1nnn(-c2ccccc2Cl)c1=O)C1CCCCC1", "human FASN (Homo sapiens, UniProt P49327)", "< 5.00"]
]}
